Just for reference, PubChem BioAssay AID624304 is where these values come from.

experiment: gst-4 reporter inhibition in live C. elegans – whole organism, uHTS, GFP/RFP fluorescence ratio, strain VP596, SKN-1 inhibitor project, primary screen (AID 624304); conditions: C. elegans VP596 Pgst-4::GFP/RFP ratio, acrylamide-induced, 24 h; at 21.8 µM; active compounds read high
Among all 360,000 compounds or so, about 1,800 (0.5%) were called active. The entries come from a sample that favours actives as a whole.
readoutLabel: inhibition (%)
The reply should contain only the number, in %.

# example entries with known answers
- O=C(/C=C/c1ccco1)Nc1ccc(Oc2ccccc2)cc1: 48.8
- CN(Cc1ccccc1)C(=O)COC(=O)c1ccccc1Nc1ccccc1: -4.32
- Cc1cc(C)c2cc(C#N)c(N3CCNCC3)nc2c1: 5.2
- Cc1ccoc1C(=O)Nc1cccc(Oc2ccccc2)c1: -23.9
- O=C(CCn1c(=S)[nH]c2ccccc2c1=O)NCCCN1CCCC1=O: 36.5

Query: Return inhibition (reported value) for this molecule: Cc1nc2cc(NC(=O)CSc3nc4c(C)cccc4cc3C#N)ccc2s1
Reply: -3.68

Query: Give the reported value of inhibition for this record: COc1ccccc1OCC(=O)OCn1c(SC)nnc(C)c1=O
Reply: 5.86

Query: Return the recorded inhibition value; entry: CN1CCN(S(=O)(=O)c2ccc(NC(=O)c3ccco3)cc2)CC1
Reply: 13.7

Query: Please list inhibition recorded for the molecule COc1cccc(NC(=O)C(Sc2nnnn2C)c2ccccc2)c1 (centres undefined)
Reply: 17.4

* * *

assay: gst-4 reporter inhibition in live C. elegans – whole organism, uHTS, GFP/RFP fluorescence ratio, strain VP596, SKN-1 inhibitor project, primary screen (AID 624304); details: C. elegans VP596 Pgst-4::GFP/RFP ratio, acrylamide-induced, 24 h; at 21.8 µM; active compounds read high
Screen size: about 360,000 compounds; about 1,800 (0.5%) were called active. The sample as a whole holds a higher share of actives than the screen did.
Form field: inhibition (one value per entry).

- OCC(CO)(CO)NCc1ccc(-c2ccccc2)cc1: 5.37% (inactive)
- CCCCS(=O)c1snnc1C (configuration not stated): 0.19% (inactive)
- CCCSC(=S)NC1CCS(=O)(=O)C1 (configuration not stated): 10.7% (inactive)
- FC(F)(F)c1ccc2nnc(-c3c(Cl)cccc3Cl)n2c1: 13.4% (inactive)

Query: Answer with the recorded inhibition of NC1=CC(=O)C(=O)c2cccnc21 only.
Reply: 18.3% (inactive)

Query: Output inhibition of COc1ccc2oc(N)nc2c1
Reply: 3.43% (inactive)

Query: Please indicate inhibition recorded for CC1CN(S(=O)(=O)c2ccc(C(=O)NN3CCN(C)CC3)cc2)CC(C)O1 (configuration not stated)
Reply: -5.41% (inactive)

Query: Give the value of inhibition reported for the following: CNc1cc(-c2c(OC)cccc2OC)ncn1
Reply: 4.47% (inactive)

Query: Please give measured inhibition of the following entry: COc1ccc(CC(NC(C)=O)C(=O)N2CCN(C(=O)Nc3cccc(Cl)c3)CC2)cc1OC (configuration not stated)
Reply: 40.7% (active)

Query: Report inhibition for C=C(C)c1cccc(C(C)(C)NC(=O)NCCN(CC)CC)c1
Reply: -10.6% (inactive)

Query: Report inhibition for C=C(C)c1cccc(C(C)(C)NC(=O)NC2CCCC2)c1
Reply: -1.51% (inactive)

Query: Indicate its recorded inhibition; the compound in question is CC(=O)c1ccc(N2CCN(C(=O)c3ccc(Cl)c(S(=O)(=O)NC4CC4)c3)CC2)c(F)c1
Reply: 14.2% (inactive)
